Taken from patent US20250026850A1.

systemTested: T1, human CD39 on cells (human, UniProt P49961 1-510)
T1 construct: One molecule for all cells that carry human CD39; the cell is named under assay; also called hCD39; cellular CD39
T1 sequence: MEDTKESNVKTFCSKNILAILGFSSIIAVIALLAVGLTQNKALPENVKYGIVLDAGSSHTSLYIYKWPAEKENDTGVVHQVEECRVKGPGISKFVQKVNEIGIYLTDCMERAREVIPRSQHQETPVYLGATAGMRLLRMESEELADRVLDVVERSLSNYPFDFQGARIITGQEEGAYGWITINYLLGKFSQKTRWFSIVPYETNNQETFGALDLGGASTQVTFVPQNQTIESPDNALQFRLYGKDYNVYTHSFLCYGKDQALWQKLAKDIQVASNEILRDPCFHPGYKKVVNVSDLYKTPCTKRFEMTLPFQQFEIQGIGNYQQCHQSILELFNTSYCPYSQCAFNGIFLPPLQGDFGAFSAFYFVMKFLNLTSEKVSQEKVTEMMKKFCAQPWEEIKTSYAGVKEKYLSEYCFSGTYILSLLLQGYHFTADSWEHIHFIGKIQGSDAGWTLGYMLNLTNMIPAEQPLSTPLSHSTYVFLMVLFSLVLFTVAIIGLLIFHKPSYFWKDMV
experimentNotes: flow cytometry, 100 nM IgG, hCD39-CHO cells; MFI ratio to parental CHO
Respond with label 1 for Cell Binding (FOB) values of 1000 FOB and above, label 0 for values below.

[
  {
    "binder": "29872 (antibody, V domains shown) VH: QVQLVQSGAEVKKPGASVKVSCKASGYTFKSYEMHWVRQAPGQGLEWMGRINPSVGSTWYAQKFQGRVTMTRDTSTSTVYMELSSLRSEDTAVYYCARGKREGGTEYLRHWGQGTLVTVSS VL: EIVLTQSPGTLSLSPGERATLSCRASQSVSSSYLAWYQQKPGQAPRLLIYGASSRATGIPDRFSGSGSGTDFTLTISRLEPEDFAVYYCQQYHSYITFGGGTKVEIK",
    "classLabel": "label 1"
  },
  {
    "binder": "31873 (antibody, V domains shown) VH: QVQLVQSGAEVKKPGSSVKVSCKASGGTFSKYGISWVRQAPGQGLEWMGSIIPEFGIANYAQKFQGRVTITADESTSTAYMELSSLRSEDTAVYYCARESGGYRDHRLGVWGQGTMVTVSS VL: EIVMTQSPATLSVSPGERATLSCRASQSVGSNLAWYQQKPGQAPRLLIYGASTRASGIPARFSGSGSGTEFTLTISSLQSEDFAVYYCQQYLLWPLTFGGGTKVEIKR",
    "classLabel": "label 1"
  },
  {
    "binder": "31429 (antibody, V domains shown) VH: QVQLVQSGAEVKKPGASVKVSCKASGYTFVSYFMHWVRQAPGQGLEWMGSINPRGGSTSYAQKFQGRVTMTRDTSTSTVYMELSSLRSEDTAVYYCARGKREGGTEYLRHWGQGTLVTVSS VL: EIVLTQSPGTLSLSPGERATLSCRASQYVSSSYLAWYQQKPGQAPRLLIYYASNRATGIPDRFSGSGSGTDFTLTISRLEPEDFAVYYCQQYHSGITFGGGTKVEIK",
    "classLabel": "label 1"
  }
]

Read the next record carefully.
Task item: Check the entry 27590 (antibody, V domains shown) VH: QVQLVQSGAEVKKPGSSVKVSCKASGGTFSNYAISWVRQAPGQGLEWMGGIIPIFGTANYAQKFQGRVTITADESTSTAYMELSSLRSEDTAVYYCARGPTVTATTSIGTHNWFDPWGQGTLVTVSS VL: EIVLTQSPATLSLSPGERATLSCRASQSVSSYLAWYQQKPGQAPRLLIYDASNRATGIPARFSGSGSGTDFTLTISSLEPEDFAVYYCQQRNFYPPTFGGGTKVEIK : does Cell Binding (FOB) equal or exceed 1000 FOB?
Reply: label 0
